System: COLO 205 colon
methodDescription: NCI-60 one-dose screen, 48 h (100 = growth as untreated, 0 = no growth, -100 = all killed)
setupConditions: 10 µM unless noted
Compounds without any hit were thinned out: in the full panel of roughly 83,000, 20% have a hit.
Respond with Met for growth values of 60% and above, Not met for values below.

Example results:
Entry Brc1ccc(C2CC(c3cccc(Nc4ccncc4)c3)=NN2c2ccccc2)cc1 (stereo not given) : is its growth no less than 60%? Not met

Entry "COc1cc(CNC(=O)CCCCC[P+](c2ccccc2)(c2ccccc2)c2ccccc2)c(OC)c2c1OCO2" : is its growth no less than 60%? Not met

More entries:
Entry "CCCCCCCCOc1ccc(/C=N/Nc2cc(C)nc3ccc(Cl)cc23)cc1" : is its growth no less than 60%? Not met

Entry "O=C1NC(=O)C(=Cc2cn(Cc3ccccn3)c3ccccc23)C(=O)N1" : is its growth no less than 60%? Not met

Entry "C=C1C(=O)O[C@H]2[C@H]1CC/C(COC(=O)/C=C/c1c[nH]c3ccccc13)=C\CC[C@@]1(C)O[C@@H]21" : is its growth no less than 60%? Not met

Entry "O=C1Nc2c(ccc(Cl)c2Cl)/C1=C/c1ccccn1" : is its growth no less than 60%? Met

Entry COC(=O)C1=C(C(=O)ONCCN(C)C)C2C=CC1(C(Cc1ccccc1)Nc1ccc(F)cc1)O2 (stereo not given) : is its growth no less than 60%? Not met

---

Test system: SN12C renal
methodDescription: NCI-60 one-dose screen, 48 h (100 = growth as untreated, 0 = no growth, -100 = all killed)
setupConditions: 10 µM unless noted
Compounds without any hit were thinned out: in the full panel of roughly 83,000, 20% have a hit. Calls of active or inactive are those of the source. The calls were made as follows: active = growth percent below 10; inactive = the rest.
Reported growth by item:

Which value of growth has been reported for "COc1ccc(NC(=O)c2sc3nc(C)c(C(=O)c4ccc(OC)cc4)cc3c2N)cc1" in the records? 63.8% (inactive)

More entries:
Which value of growth has been reported for "O=S(=O)(c1cccc(NC2=Nc3cccc4cccc2c34)c1)N1CCCC1" in the records? 72.2% (inactive)

Which value of growth has been reported for "CC(=O)O[C@]1(C(C)=O)CC[C@H]2[C@@H]3C=C(Cl)C4=CC(=O)CC[C@]4(C)[C@H]3CC[C@@]21C" in the records? 97.7% (inactive)

---

System: SN12C renal
methodDescription: NCI-60 one-dose screen, 48 h (100 = growth as untreated, 0 = no growth, -100 = all killed)
setupConditions: 10 µM unless noted
Compounds without any hit were thinned out: in the full panel of roughly 83,000, 20% have a hit. Active and inactive are the calls of the source. The calls were made as follows: active = growth percent below 10; inactive = the rest.
Reported growth by item:

Known results for molecules:
# query: growth | item "CCCCCCCCCCCCCCCC(=O)OC[C@@]1(O)C[C@@]23CC[C@@H]4C(C)(C)CCC[C@@]4(C)[C@@H]2CC[C@H]1C3" | system: SN12C renal 93.6% (inactive)

# query: growth | item "CC(=O)c1cccc(NS(=O)(=O)c2cccc(C(=O)Nc3ccc(Br)cc3)c2)c1" | system: SN12C renal 58% [25 µM] (inactive)

# query: growth | item "O=C1NC(=S)NC(=O)C1=Cc1cccc(C=C2C(=O)NC(=S)NC2=O)c1" | system: SN12C renal 95.3% (inactive)

More entries:
# query: growth | item "COc1cc(/C=C2\C(=O)N(Cc3ccc(Cl)cc3)c3ccccc32)cc(OC)c1OC" | system: SN12C renal 24.9% (inactive)

# query: growth | item "O=C1NC(=O)C(=Cc2cn(Cc3ccccn3)c3ccccc23)C(=O)N1" | system: SN12C renal 102% (inactive)

# query: growth | item "c1ccc2c(-c3c4ccsc4cc4[nH]c5ccccc5c34)c[nH]c2c1" | system: SN12C renal 50.1% (inactive)

# query: growth | item "Nc1nnc(C(=O)c2cnc3n(c2=O)CCCCC3)s1" | system: SN12C renal 95.1% (inactive)

# query: growth | item "CCNC(=S)NNC(=O)c1cc2ccc1CCc1ccc(cc1)CC2" | system: SN12C renal 95.3% (inactive)

# query: growth | item "O=S(=O)(NCCCNc1nccc(-c2c(-c3cccc(O)c3)nc3occn23)n1)c1ccc(F)cc1" | system: SN12C renal 74.9% (inactive)

# query: growth | item "Fc1ccc2nc3c(cc2c1)CSc1nnc(-c2ccc[nH]c2=S)n1N3" | system: SN12C renal 98.2% (inactive)

# query: growth | item "O=S(=O)(NCCNc1nccc(-c2c(-c3cccc(F)c3)nc3occn23)n1)c1cccc2ccccc12" | system: SN12C renal 47.6% (inactive)

# query: growth | item "CC1(C)NCCC[C@]2(C)[C@H]3CC=C4[C@@H]5C[C@@](C)(CO)CC[C@]5(C)CC[C@@]4(C)[C@]3(C)CC[C@@H]12" | system: SN12C renal 62.1% (inactive)

# query: growth | item "CNC(=O)Nc1ccc(-c2nc(N3CCOCC3)nc3c2cnn3C2CCOCC2)cc1" | system: SN12C renal 7.06% (active)

# query: growth | item "FC(F)(F)c1cccc(Oc2ccc(Nc3ncnc4ccc(OCCCN5CCOCC5)cc34)cc2Cl)c1" | system: SN12C renal 39.6% (inactive)

# query: growth | item "CC(=O)Nc1ccc(S(=O)(=O)NC2CCCCC2)cc1" | system: SN12C renal 91% (inactive)

# query: growth | item "C[C@H]1[C@H](C)CC[C@]2(CO)CC[C@]3(C)C(=CC[C@@H]4[C@@]5(C)Cc6c([nH]c7ccccc67)C(C)(C)[C@@H]5CC[C@]43C)[C@H]12" | system: SN12C renal 55.6% (inactive)

# query: growth | item "COc1ccc(Cn2nc(-c3cc(OC)c(OC)c(OC)c3)c3c2CCc2cnoc2-3)cc1OC" | system: SN12C renal 60.6% (inactive)

# query: growth | item "CCOC(=O)c1c(C)nc2c(c1N)C(=O)C(=O)N2Cc1ccc(C(F)(F)F)cc1" | system: SN12C renal 74.1% (inactive)

# query: growth | item "COc1ccc(Cn2nc(-c3ccccc3)c3c2CCc2cnoc2-3)cc1" | system: SN12C renal 76.8% (inactive)

---

Tested on: SF-539 CNS
methodDescription: NCI-60 one-dose screen, 48 h (100 = growth as untreated, 0 = no growth, -100 = all killed)
setupConditions: 10 µM unless noted
Compounds without any hit were thinned out: in the full panel of roughly 83,000, 20% have a hit.
Labelling: growth reported below 80% becomes Met; at or above becomes Not met.

Hello, I'm reviewing records and need to know if growth of "CCCCCCNC(=O)Oc1ccc(/C(=C(/CC)Cc2ccccc2)c2ccc(OCCN(CC)CC)cc2)cc1" is below 80%. Could you check? Not met

Hello, I'm reviewing records and need to know if growth of "CC(=O)CCSc1ccc(OC(C)=O)cc1" is below 80%. Could you check? Not met

Hello, I'm reviewing records and need to know if growth of "O=S(=O)(NCCNc1nccc(-c2c(-c3cccc(F)c3)nc3occn23)n1)c1cccc2ccccc12" is below 80%. Could you check? Not met

More entries:
Hello, I'm reviewing records and need to know if growth of "O=C(Nc1cccc(Cl)c1)c1cc(Cl)ccc1O" is below 80%. Could you check? Met

---

Reported growth by item:
Tested on: HCC-2998 colon
methodDescription: NCI-60 one-dose screen, 48 h (100 = growth as untreated, 0 = no growth, -100 = all killed)
setupConditions: 10 µM unless noted
The panel holds about 83,000 compounds, 20% with a hit somewhere; the sample as a whole holds those more often.
# unit: % | format: bare number

Known results for compounds:
Which value of growth has been reported for "CC(=O)Nc1ccc(C(=O)Nc2cc(-c3ccccc3)ccc2N)cc1" in the records? 90.7

Which value of growth has been reported for "CC(=O)[C@@H]1CC[C@]2(C(=O)n3ccnc3)CC[C@]3(C)[C@H](CC[C@@H]4[C@@]5(C)Cc6c([nH]c7ccccc67)C(C)(C)[C@@H]5CC[C@]43C)[C@@H]12" in the records? 109

Which value of growth has been reported for "C=C(C)[C@@H]1CC[C@]2(CO)CC[C@]3(C)[C@H](CC[C@@H]4[C@@]5(C)CCCNC(C)(C)[C@@H]5CC[C@]43C)[C@@H]12" in the records? -5.02

Which value of growth has been reported for "CCOC(=O)C1=C(C)NC(C)=C(C(=O)OCC)C1c1cc(Br)c(O)c(OC)c1" in the records? 63.6

Which value of growth has been reported for O=c1[nH]c2c(s1)CCCC2CN1CCCCC1 (stereo not drawn) in the records? 100

More entries:
Which value of growth has been reported for "COC(=O)Nc1nc2ccc(C(=O)c3cccc(I)c3)cc2[nH]1" in the records? 18.3

Which value of growth has been reported for "CC1(C)CC[C@]2(C(=O)NCC#CCN3CCOCC3)CC[C@]3(C)C(=CC[C@@H]4[C@@]5(C)Cc6c([nH]c7ccccc67)C(C)(C)[C@@H]5CC[C@]43C)[C@@H]2C1" in the records? 105

Which value of growth has been reported for "COc1ccc(C(=O)/C=C/c2c(OC)cc(OC)cc2OC)c(OC)c1" in the records? 41.7
